measured.target: Aldo-keto reductase family 1 member B1 (Bos taurus) (UniProt P16116)
assay.remarks: In vitro inhibition of aldose reductase from the partially purified bovine lens at 10e-7 M concentration
observation.type: inhibition
The number alone won't do; follow it with the unit.

mol.smiles | measured.target | inhibition
CSc1nc(C(C)C)n(CC(=O)O)c(=O)c1C#N | Aldo-keto reductase family 1 member B1 (Bos taurus) (UniProt P16116) | 94%
CC(C)(C)c1nc(OCC(=O)O)c(C#N)c(SCC2CCCCC2)n1 | Aldo-keto reductase family 1 member B1 (Bos taurus) (UniProt P16116) | 88%

Let us move to another entry and its inhibition.
Query: Please report the recorded inhibition for Cc1nc(NCC2CCCCC2)c(C#N)c(=O)n1CC(=O)O .
Reply: 72%

###

measured.target: Aldo-keto reductase family 1 member B1 (Bos taurus)
assay.remarks: In vitro inhibition of aldose reductase from the partially purified bovine lens at 10e-5 M concentration
observation.type: inhibition (%)
One number for each entry, in %.

mol.smiles | inhibition, %
Cc1nc(NCc2ccccc2)c(C#N)c(=O)n1CC(=O)O | 96
N#Cc1c(Cc2cccc3ccccc23)nc(-c2cccc3c(Br)cccc23)n(CC(=O)O)c1=O | 93
CC(C)(C)c1nc(OCC(=O)O)c(C#N)c(SCc2ccc(Br)cc2F)n1 | 98
CC(C)(C)c1nc(OCC(=O)O)c(C#N)c(SCc2ccc(Br)cc2)n1 | 95
CSc1nc(C2CCCCC2)n(CC(=O)O)c(=O)c1S(=O)(=O)c1ccccc1 | 3

Give measured inhibition for every item shown.
1. Cc1nc(-c2cccc3ccccc23)nc(OCC(=O)O)c1C#N
2. Cc1nc(NCc2cccnc2)c(C#N)c(=O)n1CC(=O)O
3. N#Cc1c(OCC(=O)O)nc(-c2cccc3ccccc23)nc1-c1ccccc1
4. N#Cc1c(SCc2ccc(Br)cc2F)nc(C2CCCCC2)n(CC(=O)O)c1=O

Reply:
1: 93; 2: 88; 3: 79; 4: 96

###

measured.target: Aldo-keto reductase family 1 member B1 (Bos taurus) (UniProt P16116)
assay.remarks: In vitro inhibition of aldose reductase from the partially purified bovine lens at 10e-6 M concentration
observation.type: inhibition
For clarity, give the value followed by its unit.

For each entry beneath this line, provide reported inhibition.
1. CC(C)Sc1nc(C(C)(C)C)nc(OCC(=O)O)c1C#N
2. Cc1nc(N2CCN(Cc3ccccc3)CC2)c(C#N)c(=O)n1CC(=O)O
3. N#Cc1c(-c2ccccc2)nc(-c2cccc3c(Br)cccc23)n(CC(=O)O)c1=O
4. CC(C)(C)c1nc(OCC(=O)O)c(C#N)c(SCc2ccccc2)n1
5. Cc1nc(NCC2CCCCC2)c(C#N)c(=O)n1CC(=O)O
6. CC(C)Sc1nc(C(C)C)n(CC(=O)O)c(=O)c1C#N
7. CC(C)(C)c1nc(OCC(=O)O)c(C#N)c(SCC2CCCCC2)n1

Reply:
91%
89%
71%
85%
91%
97%
96%

Lab note: each compound below needs its inhibition filled in.
1. CC(C)(C)c1nc(OCC(=O)O)c(C#N)c(SCc2ccc(Br)cc2F)n1
2. CSc1nc(C)n(CC(=O)O)c(=O)c1C#N
3. Cc1nc(-c2cccc3ccccc23)nc(OCC(=O)O)c1C#N
4. Cc1nc(-c2ccccc2)nc(OCC(=O)O)c1C#N

Reply:
["93%", "84%", "85%", "88%"]

Give inhibition for each of the items listed below.
1. N#Cc1c(Cc2cccc3ccccc23)nc(-c2cccc3c(Br)cccc23)n(CC(=O)O)c1=O
2. CC(C)(C)c1nc(OCC(=O)O)c(C#N)c(SCc2ccc(Br)cc2)n1
3. CSc1nc(C(C)C)n(CC(=O)O)c(=O)c1C#N

Reply:
["85%", "95%", "96%"]
